System: TFEB
testSummary: High content TFEB-GFP nuclear translocation assay
Assay type: cell-based
assayConditions: Homo sapiens; mobilization of cytosolic TFEB to the nucleus; TFEB-GFP HeLa cells, 3 h at 37° C. in RPMI, ten concentrations 50 μM to 2.54 nM, 4 runs; read-out: Average EC50
pEC50: −log10 of the molar value.
Recorded pEC50 for the following compounds

Solved cases below.
>  <compound>
NC1(c2ccc(-c3nc4ccn5c(=O)[nH]nc5c4cc3-c3ccccc3)cc2)CCC1 [MK-2206]

>  <pEC50>
4.82 to 5.15

$$$$
>  <compound>
CCS(=O)(=O)Nc1ccc2c(c1)/C(=C(/Nc1ccc(CN3CCCCC3)cc1)c1ccccc1)C(=O)N2 [Hesperadin]

>  <pEC50>
4.82 to 5.15

$$$$
>  <compound>
COc1cc(N2CCC(N3CCN(C)CC3)CC2)ccc1Nc1ncc(Cl)c(Nc2ccccc2S(=O)(=O)C(C)C)n1 [NVP-TAE684]

>  <pEC50>
> 5.15

$$$$
>  <compound>
CN1CCN(CCOc2cc(OC3CCOCC3)c3c(Nc4c(Cl)ccc5c4OCO5)ncnc3c2)CC1 [AZD0530 (Saracatinib), Saracatinib]

>  <pEC50>
4.82 to 5.15

$$$$
>  <compound>
CC(C)c1cnn2c(NCc3ccccc3)cc(NCCCCCCN)nc12 [BS181]

>  <pEC50>
> 5.15

$$$$
>  <compound>
CNC(=O)c1ccc2c(c1)NC(=O)/C2=C(\Nc1cccc(CN(C)C)c1)c1ccccc1 [BIX 02188]

>  <pEC50>
< 4.82

$$$$
>  <compound>
O=c1cc(-c2cccc3c2Sc2ccccc2S3)oc(N2CCOCC2)c1 [KU-55933]

>  <pEC50>
> 5.15

$$$$
>  <compound>
Nc1nc(Nc2ccc(S(N)(=O)=O)cc2)nn1C(=O)c1c(F)cccc1F [JNJ-7706621]

>  <pEC50>
4.82 to 5.15

$$$$

Given Nc1ncnc2c1c(-c1cccc(OCc3ccccc3)c1)cn2C1CC(CN2CCCC2)C1 (stereo in doubt) [NVP-ADW742] , state its recorded pEC50. > 5.15

Given CO[C@H]1C[C@@H]2CC[C@@H](C)[C@@](O)(O2)C(=O)C(=O)N2CCCC[C@H]2C(=O)O[C@H]([C@H](C)C[C@@H]2CC[C@@H](O)[C@H](OC)C2)CC(=O)[C@H](C)/C=C(\C)[C@@H](O)[C@@H](OC)C(=O)[C@H](C)C[C@H](C)/C=C/C=C/C=C/1C [RAPAMYCIN] , state its recorded pEC50. < 4.82

Given CO[C@H]1C[C@@H]2CC[C@@H](C)[C@@](O)(O2)C(=O)C(=O)N2CCCC[C@H]2C(=O)O[C@H]([C@H](C)C[C@@H]2CC[C@@H](OP(C)(C)=O)[C@H](OC)C2)CC(=O)[C@H](C)/C=C(\C)[C@@H](O)[C@@H](OC)C(=O)[C@H](C)C[C@H](C)/C=C/C=C/C=C/1C [Deforolimus] , state its recorded pEC50. 4.82 to 5.15

* * *

Test system: TFEB
testSummary: High content TFEB-GFP nuclear translocation assay
Format: cell-based
assayConditions: Homo sapiens; mobilization of cytosolic TFEB to the nucleus; TFEB-GFP HeLa cells, 3 h at 37° C. in RPMI, ten concentrations 50 μM to 2.54 nM, 4 runs; read-out: Average EC50
Recorded EC50 for the following compounds

Solved cases below.
>  <compound>
C=CC(=O)Nc1cc2c(Nc3ccc(F)c(Cl)c3)ncnc2cc1OCCCN1CCOCC1

>  <targetOrSystem>
TFEB

>  <reportedEndpoint>
EC50

>  <result>
< 7 µM

$$$$
>  <compound>
COC(=O)Nc1ccc(-c2nc(N3CCOCC3)c3cnn(C4CCN(C(=O)OC)CC4)c3n2)cc1

>  <targetOrSystem>
TFEB

>  <reportedEndpoint>
EC50

>  <result>
7 to 15 µM

$$$$
>  <compound>
COc1cc2nccc(Oc3ccc(NC(=O)Nc4ccc(F)cc4F)c(F)c3)c2cc1OC

>  <targetOrSystem>
TFEB

>  <reportedEndpoint>
EC50

>  <result>
< 7 µM

$$$$
>  <compound>
CN(C)Cc1cccc(N/C(=C2\C(=O)Nc3cc(C(=O)N(C)C)ccc32)c2ccccc2)c1

>  <targetOrSystem>
TFEB

>  <reportedEndpoint>
EC50

>  <result>
7 to 15 µM

$$$$
>  <compound>
O=C1c2ccccc2-c2n[nH]c3cccc1c23

>  <targetOrSystem>
TFEB

>  <reportedEndpoint>
EC50

>  <result>
> 15 µM

$$$$
>  <compound>
Cc1c[nH]c(-c2cnc(NCCNc3ccc(C#N)cn3)nc2-c2ccc(Cl)cc2Cl)n1

>  <targetOrSystem>
TFEB

>  <reportedEndpoint>
EC50

>  <result>
< 7 µM

$$$$

Given Clc1ccc(C2(c3ccc(-c4cn[nH]c4)cc3)CCNCC2)cc1 , state its recorded EC50. < 7 µM

Given CC[C@@H]1C(=O)N(C)c2cnc(Nc3ccc(C(=O)NC4CCN(C)CC4)cc3OC)nc2N1C1CCCC1 , state its recorded EC50. < 7 µM

Given Cn1c(=O)n(-c2ccc(C(C)(C)C#N)cc2)c2c3cc(-c4cnc5ccccc5c4)ccc3ncc21 , state its recorded EC50. < 7 µM

Given CC(C)(C)Cn1c(N)nc2ccc(-c3[nH]c(C(C)(C)C)nc3-c3ccc(F)cc3)nc21 , state its recorded EC50. < 7 µM

Given C[C@@H]1CN(CC(=O)Nc2ccc3c(c2)Cc2cccc(-c4cc(=O)cc(N5CCOCC5)o4)c2S3)C[C@H](C)O1 , state its recorded EC50. > 15 µM

Given Cc1cc(Nc2cc(CN3CCOCC3)c3nc(C)c(Cc4ccc(Cl)cc4F)n3n2)[nH]n1 , state its recorded EC50. < 7 µM

Given Cc1ccc(S(=O)(=O)Nc2nc3ccccc3nc2Nc2ccc3nsnc3c2)cc1 , state its recorded EC50. < 7 µM

Given CS(=O)(=O)CCNCc1ccc(-c2ccc3ncnc(Nc4ccc(OCc5cccc(F)c5)c(Cl)c4)c3c2)o1 [Lapatinib Ditosylate] , state its recorded EC50. < 7 µM

Given COc1ccc(-c2ccc3c(N4CCOCC4)nc(N4C[C@@H](C)O[C@@H](C)C4)nc3n2)cc1CO , state its recorded EC50. < 7 µM

Given Cc1cc(C(C)Nc2ccccc2)c2nc(N3CCOCC3)cc(=O)n2c1 (stereo not shown) , state its recorded EC50. < 7 µM
